Here, each record is paired with measured %Inh data.
# Test system: PDGFRA
# Stated conditions: concentration: 1 μM, replicates: in singlicate; n = 1;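 note: KINOMEscan kinase panel screen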
A number alone suffices; assume %.

Molecule: CC(=O)c1cccc(NC(=O)NC2CCN(c3ccnc(Nc4ccc(F)cc4)n3)C2)c1 (stereo not drawn) [GSK1379710]
Observed result: 10
--
Molecule: CC(=O)c1c(C)c2cnc(Nc3ccn(C)n3)nc2n(C2CCCC2)c1=O
Observed result: 0

Now look at this one.
%Inh reported for this molecule COc1ccc(Nc2nccc(NCCNC(=O)Nc3cc(C)ccc3C)n2)cc1 [GSK1379899] : 0

---

# Tested on: WEE2
# Stated conditions: concentration: 1 μM, replicates: in singlicate; n = 1
Here, each record is paired with measured %Inh data.
A number alone suffices; assume %.

Mol: O=C1NC(=O)C(c2ccc(Cl)cc2)=C1Nc1ccc(O)cc1
Subject of test: WEE2
Observation type: %Inh
Observed result: 0

%Inh reported for this compound Cc1cccc2c(-c3ccncn3)c(-c3ccc(F)cc3)nn12 : 0

%Inh reported for this compound Cc1ccc(NC(=O)Nc2ccc(Cl)c(C(F)(F)F)c2)cc1-c1ccc(C(=O)Nc2ccncc2)cc1 : 10

%Inh reported for this compound Fc1ccc(-c2nc[nH]c2-c2ccncc2)cc1 : 0
